- Experiment Notes: chemical genetic growth profiling, strain panel (AID 1159580);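 further: tested at 20 µM; growth read once vehicle control cultures reached saturation at 30 °C; 1 = growth at the plate median or of vehicle wells; lower values mean less growth of the strain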
- Condition Set: S. cerevisiae strains, growth OD, strain wild type
About 2,000 (36%) of roughly 5,500 compounds were called active. Roughly 18% stayed inconclusive and do not appear here. No stated cut-off is given here; in the data, active means normalized growth mostly below about 0.91 (no sharp cut-off); inconclusive means no clear call, values can overlap the other calls; inactive means mostly above about 0.92. This is one part of the list.
Labels: active, inactive

molecule=NCCCCC(=O)O class=inactive
molecule=Cc1ccc(C(=O)c2ccc(CC(=O)O)n2C)cc1 class=inactive
molecule=FC(F)(F)c1cc(Cl)c2nsnc2c1 class=inactive
molecule="O=C(O)CCC1NCC2CC1CN1CCCCC21 (stereo not drawn)" class=inactive
molecule=CC(=O)N[C@@H](CCC(=O)O)C(=O)O class=inactive
molecule=Cc1cc(CC(=O)O)n(C)c1C(=O)c1ccc(Cl)cc1 class=inactive
molecule=CN(C)C(=O)Oc1ccc[n+](C)c1 class=inactive
molecule=NC(N)=NC(N)=Nc1ccccc1C(F)(F)F class=inactive
molecule=COc1ccc2c(=O)c(OC)c(-c3ccccc3)oc2c1 class=active
molecule="Clc1ccc(COC(Cn2ccnc2)c2ccc(Cl)cc2Cl)c(Cl)c1 (stereo not drawn)" class=active
molecule=COc1ccc2oc3ccccc3c(=O)c2c1 class=active
molecule=FC(F)(F)Oc1ccccc1-c1nnc(-c2ccc(Cl)cc2)o1 class=inactive
molecule="C[C@@H]1CC[C@H]2C(C)(C)C3CC12CC[C@@]3(C)O (stereo partly drawn)" class=inactive

* * *

Listing of recorded normalized growth by entry.
- Experiment Notes: chemical genetic growth profiling, strain panel (AID 1159580);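 further: tested at 20 µM; growth read once vehicle control cultures reached saturation at 30 °C; 1 = growth at the plate median or of vehicle wells; lower values mean less growth of the strain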
- Condition Set: S. cerevisiae deletion strains, growth OD, locus YHR030C, strain SLT2, active compounds read low
Hit rate of the full screen: of about 5,500 compounds, about 2,000 (36%) were called active. Not shown: some 18% with an inconclusive outcome. The list shows a part of the results.
Measured Metric: normalized growth

molecule="CC(C)(C)C1=C(C#N)C(c2c(Cl)cccc2Cl)C(C#N)=C(N)O1 (configuration not stated)" measured_metric="normalized growth" reported_result=0.983
molecule="O=C1c2ccccc2C2(c3ccccc3)NCCN12 (configuration not stated)" measured_metric="normalized growth" reported_result=0.972
molecule=COc1ccc(-c2cn3cc(C)ccc3n2)cc1 measured_metric="normalized growth" reported_result=1.01
molecule=NC(=O)N[C@@H]1O[C@H](CO)[C@@H](O)[C@H](O)[C@H]1O measured_metric="normalized growth" reported_result=1
molecule="CC(=O)O[C@@H]1CC2C(C)(C)[C@H](O)C=C[C@]2(C)C2CC[C@@]3(C)[C@H](c4ccoc4)OC(=O)C4OC43[C@@]21C (some centres not stated)" measured_metric="normalized growth" reported_result=0.999
molecule=O=S(=O)(c1ccc(Cl)cc1)c1cc(C(F)(F)F)cc(C(F)(F)F)c1 measured_metric="normalized growth" reported_result=0.988
molecule="CC(=O)O[C@@H]1CC2C(C)(C)[C@@H](O)CC[C@]2(C)C2CC[C@@]3(C)[C@H](c4ccoc4)OC(=O)[C@H]4O[C@]43[C@@]21C (some centres not stated)" measured_metric="normalized growth" reported_result=1.01
molecule=FC(F)(F)c1cc(Cl)c2nsnc2c1 measured_metric="normalized growth" reported_result=1.02
molecule="CC(=O)OC1CC(OC(C)=O)C2(C)C(CC(OC(C)=O)C3(C)C2CCC2(C)C(c4ccoc4)OC(=O)C4OC423)C1(C)C (configuration not stated)" measured_metric="normalized growth" reported_result=0.984
molecule=O=C(Nc1ccncc1)c1cc(-c2ccccc2)oc1C(F)(F)F measured_metric="normalized growth" reported_result=1
molecule="CC(=O)O[C@@H]1CC2C(C)(C)C(=O)C3OC3[C@]2(C)C2CC[C@@]3(C)[C@H](c4ccoc4)OC(=O)C4OC43[C@@]21C (some centres not stated)" measured_metric="normalized growth" reported_result=0.988
molecule=O=S(=O)(NCCc1ccncc1)c1cc(C(F)(F)F)cc(C(F)(F)F)c1 measured_metric="normalized growth" reported_result=1.01
